Data origin, for the record: ChEMBL document CHEMBL5042556

Assay: AUC in Sprague-Dawley rat at 30 mg/kg, po
Type: ADME, organism-based
Parameters: dose 30 mg/kg
Conditions: in vivo
Quantity Kind: AUC (µM·h)
Express it in µM·h; write the number only.

Q: Given the molecule C[C@H]1OC(=O)[C@]2(N)CC(F)(F)[C@@H](C)[C@H](/C=C/c3ccc(-c4ccccc4C#N)cn3)[C@H]12 , write its reported AUC.
Ans: 97

====

Molecular target: UniProtKB P08183
Sequence (P08183 whole entry): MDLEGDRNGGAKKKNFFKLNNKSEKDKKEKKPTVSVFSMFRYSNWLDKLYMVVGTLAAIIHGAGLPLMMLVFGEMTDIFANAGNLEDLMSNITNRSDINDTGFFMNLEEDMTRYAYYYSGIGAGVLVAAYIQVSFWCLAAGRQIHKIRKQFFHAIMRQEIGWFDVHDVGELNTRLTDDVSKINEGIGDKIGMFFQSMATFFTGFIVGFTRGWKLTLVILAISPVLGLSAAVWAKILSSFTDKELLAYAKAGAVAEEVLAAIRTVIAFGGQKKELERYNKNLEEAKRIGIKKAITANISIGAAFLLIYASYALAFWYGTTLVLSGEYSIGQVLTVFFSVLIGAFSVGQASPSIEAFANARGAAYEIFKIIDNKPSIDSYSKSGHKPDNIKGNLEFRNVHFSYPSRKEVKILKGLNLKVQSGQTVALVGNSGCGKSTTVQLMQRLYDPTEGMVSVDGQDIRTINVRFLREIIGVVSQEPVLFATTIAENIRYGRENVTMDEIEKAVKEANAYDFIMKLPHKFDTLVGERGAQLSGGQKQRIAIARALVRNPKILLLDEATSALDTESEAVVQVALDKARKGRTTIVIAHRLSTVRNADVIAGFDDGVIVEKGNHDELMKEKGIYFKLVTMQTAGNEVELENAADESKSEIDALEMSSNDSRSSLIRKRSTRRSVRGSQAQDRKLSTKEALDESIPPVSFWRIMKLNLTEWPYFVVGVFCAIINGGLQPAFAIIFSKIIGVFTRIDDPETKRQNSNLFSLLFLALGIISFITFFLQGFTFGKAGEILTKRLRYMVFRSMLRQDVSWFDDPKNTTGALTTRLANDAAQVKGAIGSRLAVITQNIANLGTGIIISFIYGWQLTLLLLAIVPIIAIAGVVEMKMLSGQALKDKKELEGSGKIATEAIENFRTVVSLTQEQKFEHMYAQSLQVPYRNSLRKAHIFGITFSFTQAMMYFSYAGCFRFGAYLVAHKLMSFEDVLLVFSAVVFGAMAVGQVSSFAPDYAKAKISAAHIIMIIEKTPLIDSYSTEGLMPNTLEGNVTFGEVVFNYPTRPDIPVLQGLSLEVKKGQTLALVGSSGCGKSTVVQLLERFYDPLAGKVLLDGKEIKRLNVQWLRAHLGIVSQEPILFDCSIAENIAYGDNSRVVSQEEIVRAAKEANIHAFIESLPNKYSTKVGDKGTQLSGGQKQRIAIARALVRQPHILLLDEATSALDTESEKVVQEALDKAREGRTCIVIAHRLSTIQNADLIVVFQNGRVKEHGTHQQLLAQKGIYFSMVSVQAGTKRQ
Assay: Effect on human P-glycoprotein expressed in MDCK cells assessed as efflux ratio of apparent permeability across basolateral to apical side over apical to basolateral side (reference value: 0.6 to 0.8)
Format: ADME, cell-based, MDCKII-LE
Settings: MDCK-MDR1
Quantity Kind: efflux ratio

Smiles Record: Cc1cccc(-c2ccc(/C=C/[C@@H]3[C@@H]4[C@@H](C)OC(=O)[C@]4(O)CC(F)(F)[C@H]3C)nc2)c1C#N
efflux ratio: 1.5

Could you now consider this next compound?
Q: Given the compound CCNC(=O)N1C[C@H]2[C@H](C)[C@@H](C)[C@H](/C=C/c3ccc(-c4ccccc4C#N)cn3)[C@@H]3[C@@H](C)OC(=O)[C@@]32C1 , write its reported efflux ratio.
Ans: > 65
